# credit: PubChem BioAssay (NCI)

Assay: NCI Yeast Anticancer Drug Screen. Data for the cln2 rad14 strain (AID 165)
Settings: S. cerevisiae cln2 rad14 strain, at 50.0 µM (retest, dose inferred, filed as 5.0)
The panel holds about 79,000 compounds, 15% with a hit somewhere; the sample as a whole holds those more often. Activity calls are given as the source filed them. No stated cut-off is given here; in the data, active means growth inhibition above about 70%; inactive means the rest.
Classes used: active, inactive

molecule=COc1cc(NS(C)(=O)=O)ccc1Nc1c2ccccc2nc2ccccc12 labelvalue=inactive
molecule=Cc1ccc2c(c1)C(=O)N(CC[P+](c1ccccc1)(c1ccccc1)c1ccccc1)C2=O labelvalue=active
molecule=CC(C)OC(=O)c1cc([N+](=O)[O-])cc([N+](=O)[O-])c1Sc1ncnc2nc[nH]c12 labelvalue=inactive
molecule="OC(CCl)COc1c(Cl)c(Cl)c(Cl)c(Cl)c1Cl (configuration not stated)" labelvalue=inactive
molecule="O=C(OCC1OC(c2nn[nH]n2)C(OC(=O)c2ccccc2)C1OC(=O)c1ccccc1)c1ccccc1 (configuration not stated)" labelvalue=active
molecule="O=S(=O)(c1ccc(OCC(O)COc2ccc(S(=O)(=O)c3ccc(OCC4CO4)cc3)cc2)cc1)c1ccc(OCC2CO2)cc1 (configuration not stated)" labelvalue=inactive
molecule=CCCCN(CCCC)Cc1cc(Nc2c3ccc(Cl)cc3nc3ccc(OC)cc23)ccc1O labelvalue=inactive
molecule=NNc1cc([N+](=O)[O-])ccc1Cl labelvalue=inactive
molecule=Cc1ccc(/C=C/C(=O)c2cc(CN(C)C)c(O)c(CN(C)C)c2)cc1 labelvalue=inactive
molecule=O=[N+]([O-])c1ccc(Cc2nc3ccccc3s2)cc1 labelvalue=inactive
molecule=CCN(CC)CCNc1ccc2nnn3c4ccc([N+](=O)[O-])cc4c(=O)c1c23 labelvalue=inactive
molecule="O=C(/C=C\\c1ccccc1)N1c2ccccc2CC1c1c[nH]c2ccccc12 (configuration not stated)" labelvalue=inactive
molecule=CC(C)N(C(=O)c1ccc(Cl)c(Cl)c1)C(C)C labelvalue=inactive
molecule=O=C1Nc2ccccc2/C1=C\c1ccccn1 labelvalue=inactive
molecule=COC(=O)c1c(C)cccc1C(=O)c1ccc(C)cc1C labelvalue=inactive
molecule=Cc1ccc(NC(=O)CSC(N)=O)cc1 labelvalue=active
molecule=O=C(O)c1ccc2c3c(ncnc13)-c1ccccc1C2=O labelvalue=active
molecule=CC(=O)N=C1N(/C=C2\C(=O)Oc3ccccc3C2=O)C(=O)/C(=C/c2ccco2)N1C labelvalue=inactive
molecule=CN(C)CC(CN(C)C)C(=O)c1ccc(Oc2ccccc2)cc1 labelvalue=active
molecule=CCCCCCCCCCCCCCCCOP(=O)([O-])OCC[N+](C)(C)C labelvalue=active
molecule=Cc1nc2sc3c(c2c2nnnn12)CCCC3 labelvalue=inactive
molecule="COC(=O)C([NH-])c1ccccc1.COC(=O)C([NH-])c1ccccc1.[Cl][Pt+2][Cl] (configuration not stated)" labelvalue=inactive
